Tested on: K562 CRISPRi cells
Test: Constant region variant library pooled growth screen, K562
Type: cell-based, human
Details: sgRNA constant region variants; activity relative to the original, un-modified constant region cr995
Lab note: anything with Mean relative activity at or over 1 counts as true (1); the rest go in false (0).

>  <molecule>
cr352 (nucleic acid, listed as DNA, chemistry not fully specified) guide: GTTTAAGAGCTAAGCTGGAAACAGCATAGCAAGTTTAAATAAGGCTAGTCCGTTATCACCTTGAAAAAGTGGCACCGAGTCGGTGCT

>  <category_label>
true (1)

$$$$
>  <molecule>
cr902 (nucleic acid, listed as DNA, chemistry not fully specified) guide: GTTTAAGAGCTAAGCTGGAAACAGCATAGCAAGTTTAAATAAGGCTAGTCCGTTATCAACTTGAAAAAGTGACACCGAGTCGGTGTT

>  <category_label>
true (1)

$$$$
>  <molecule>
cr015 (nucleic acid, listed as DNA, chemistry not fully specified) guide: GTTTACGAGCTAAGCTGGAAACAGCATAGCAAGTTTAAATAAGGCTAGTCCGTTATCAACTTGAAAAAGTGGCACCGAGTCGGTGCT

>  <category_label>
false (0)

$$$$
>  <molecule>
cr962 (nucleic acid, listed as DNA, chemistry not fully specified) guide: GTTTAAGAGCTAAGCTGGAAACAGCATAGCAAGTTTAAATAAGGCTAGTCCGTTATCAACTTGAAAAAGTGGGACCCAGTGGGTCCT

>  <category_label>
false (0)

$$$$
>  <molecule>
cr738 (nucleic acid, listed as DNA, chemistry not fully specified) guide: GTTTAAGAGCTAAGCTGGAAACAGCATAGCATGTTTAAATTAGGCTAGTCCGTTATCAACTTGAAAAAGTGGCACCGAGTCGGTGCT

>  <category_label>
false (0)

$$$$
>  <molecule>
cr748 (nucleic acid, listed as DNA, chemistry not fully specified) guide: GTTTAAGAGCTAAGCTGGAAACAGCATAGCAAGTTTAAATAAGGCTAGTCCGTTATCAACTCGAGAGAGTGGCACCGAGTCGGTGCT

>  <category_label>
true (1)

$$$$
